Value source: patent US10941182

Target: T1, rat APJ receptor (rat, UniProt Q9JHG3 1-377)
T1 sequence (looked up): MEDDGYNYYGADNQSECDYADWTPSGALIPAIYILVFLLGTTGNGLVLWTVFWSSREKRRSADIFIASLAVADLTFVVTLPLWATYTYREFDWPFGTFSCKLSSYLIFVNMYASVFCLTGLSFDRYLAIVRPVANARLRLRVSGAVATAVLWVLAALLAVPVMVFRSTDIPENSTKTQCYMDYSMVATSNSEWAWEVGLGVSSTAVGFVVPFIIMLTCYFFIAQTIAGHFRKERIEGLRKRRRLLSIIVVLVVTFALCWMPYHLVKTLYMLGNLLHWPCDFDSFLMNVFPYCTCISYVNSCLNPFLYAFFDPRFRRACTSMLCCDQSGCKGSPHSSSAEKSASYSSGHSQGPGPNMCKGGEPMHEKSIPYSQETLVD
Assay: cell-based or functional assay
Starred links: 1 amine or outer side, 2 acyl side, 3 side chain; linkers in the order of their positions; H or OH if unused. Non-standard residues stand in square brackets, D forms with d. Primed or numbered codes have the meaning given here. *: point of attachment. AC4Abu = α-carboxy-4-aminobutyric acid, O=C(C(CCN[*:1])C(=O)[*:3])[*:2]; Oic = O=C(O)[C@@H]1C[C@@H]2CCCC[C@@H]2N1; Phe(4-Cl) = N[C@@H](Cc1ccc(Cl)cc1)C(=O)O; γGlu = O=C(O)[C@H](CCC(=O)[*:2])N[*:1]; 2Nal = N[C@@H](Cc1ccc2ccccc2c1)C(=O)O; NMeR = CN[C@@H](CCCNC(=N)N)C(=O)O; Tridecanoyl = CCCCCCCCCCCCC(=O)*; Cha = N[C@@H](CC1CCCCC1)C(=O)O; Nle = CCCC[C@H](N)C(=O)O; Pip′ = not defined here; AEEA = NCCOCCOCC(=O)O
Outcome measure: EC50 Rat APJ Receptor (GTPγS assay)
Answer with the number, then the unit.

Some binders with recorded EC50 Rat APJ Receptor (GTPγS assay):
[
  {
    "Binder": "Tridecanoyl-[AC4Abu][AEEA][AEEA]QRP[NMeR][Cha]SHKG[Oic][Nle][Phe(4-Cl)]-OH (SMILES CCCCCCCCCCCCC(=O)NCCC(C(=O)O)C(=O)NCCOCCOCC(=O)NCCOCCOCC(=O)N[C@@H](CCC(N)=O)C(=O)N[C@@H](CCCNC(=N)N)C(=O)N1CCC[C@H]1C(=O)N(C)[C@@H](CCCNC(=N)N)C(=O)N[C@@H](CC1CCCCC1)C(=O)N[C@@H](CO)C(=O)N[C@@H](Cc1c[nH]cn1)C(=O)N[C@@H](CCCCN)C(=O)NCC(=O)N1[C@H](C(=O)N[C@@H](CCCC)C(=O)N[C@@H](Cc2ccc(Cl)cc2)C(=O)O)C[C@@H]2CCCC[C@@H]21) [Apelin polypeptide SEQ ID NO: 409]",
    "EC50 Rat APJ Receptor (GTPγS assay)": "0.511 nM"
  },
  {
    "Binder": "Tridecanoyl-[AC4Abu][AEEA][AEEA]QRP[NMeR]LSHKGP[Nle][2Nal]-OH (SMILES CCCCCCCCCCCCC(=O)NCCC(C(=O)O)C(=O)NCCOCCOCC(=O)NCCOCCOCC(=O)N[C@@H](CCC(N)=O)C(=O)N[C@@H](CCCNC(=N)N)C(=O)N1CCC[C@H]1C(=O)N(C)[C@@H](CCCNC(=N)N)C(=O)N[C@@H](CC(C)C)C(=O)N[C@@H](CO)C(=O)N[C@@H](Cc1c[nH]cn1)C(=O)N[C@@H](CCCCN)C(=O)NCC(=O)N1CCC[C@H]1C(=O)N[C@@H](CCCC)C(=O)N[C@@H](Cc1ccc2ccccc2c1)C(=O)O) [Apelin polypeptide SEQ ID NO: 403]",
    "EC50 Rat APJ Receptor (GTPγS assay)": "8.1 nM"
  }
]

Now for the binder whose EC50 Rat APJ Receptor (GTPγS assay) we want.
EC50 Rat APJ Receptor (GTPγS assay) for Tridecanoyl-[γGlu][AEEA][AEEA]QR[Pip′][NMeR][Cha]SHKG[Oic][Nle]P[Phe(4-Cl)]-OH [Apelin polypeptide SEQ ID NO: 440] is 4.26 nM
